target: Gamma-secretase; assay: Inhibition of gamma-secretase in human SH-SY5Y cells overexpressing APP assessed as amyloid beta-42 production by electrochemiluminescent assay
For each record, write down the corresponding IC50.
Include the unit right after the number.

Consider the following illustrative entries.
INPUT: So what's the measured IC50 for this one? COc1cc(/C=C/c2nc(N)nc(Nc3ccccc3)n2)ccc1-n1cnc(C)c1
OUTPUT: 1070 nM

INPUT: So what's the measured IC50 for this one? COc1cc(/C=C/c2nc(N)c3c(n2)oc2ccccc23)ccc1-n1cnc(C)c1
OUTPUT: 320 nM

INPUT: So what's the measured IC50 for this one? COc1cc(/C=C/c2nc3ccccc3c(=O)n2-c2ccccc2)ccc1-n1cnc(C)c1
OUTPUT: 2080 nM

INPUT: So what's the measured IC50 for this one? COc1cc(/C=C/c2nc3sc(C)c(C)c3c(=O)[nH]2)ccc1-n1cnc(C)c1
OUTPUT: 1650 nM

Please give IC50, item by item, for the list that follows.
1. COc1cc(/C=C/c2nc3ccc(F)cc3c(=O)[nH]2)ccc1-n1cnc(C)c1
2. COc1cc(/C=C/c2nc3cc(Cl)ccc3c(=O)[nH]2)ccc1-n1cnc(C)c1
3. COc1cc(/C=C/c2nc3ccccc3[nH]2)ccc1-n1cnc(C)c1
4. COc1cc(/C=C/c2nc(NCc3ccccc3)c3c4c(sc3n2)CCC4)ccc1-n1cnc(C)c1
5. CCOC(=O)c1sc2nc(/C=C/c3ccc(-n4cnc(C)c4)c(OC)c3)nc(N)c2c1C
6. COc1cc(/C=C/c2nc(N)c3ccccc3n2)ccc1-n1cnc(C)c1

OUTPUT:
1. 4280 nM
2. 660 nM
3. 840 nM
4. 1860 nM
5. 540 nM
6. 1690 nM

###

For each record, write down the corresponding IC50.
target: Voltage-gated inwardly rectifying potassium channel KCNH2 (Homo sapiens, UniProt Q12809)
Sequence (Q12809 whole entry): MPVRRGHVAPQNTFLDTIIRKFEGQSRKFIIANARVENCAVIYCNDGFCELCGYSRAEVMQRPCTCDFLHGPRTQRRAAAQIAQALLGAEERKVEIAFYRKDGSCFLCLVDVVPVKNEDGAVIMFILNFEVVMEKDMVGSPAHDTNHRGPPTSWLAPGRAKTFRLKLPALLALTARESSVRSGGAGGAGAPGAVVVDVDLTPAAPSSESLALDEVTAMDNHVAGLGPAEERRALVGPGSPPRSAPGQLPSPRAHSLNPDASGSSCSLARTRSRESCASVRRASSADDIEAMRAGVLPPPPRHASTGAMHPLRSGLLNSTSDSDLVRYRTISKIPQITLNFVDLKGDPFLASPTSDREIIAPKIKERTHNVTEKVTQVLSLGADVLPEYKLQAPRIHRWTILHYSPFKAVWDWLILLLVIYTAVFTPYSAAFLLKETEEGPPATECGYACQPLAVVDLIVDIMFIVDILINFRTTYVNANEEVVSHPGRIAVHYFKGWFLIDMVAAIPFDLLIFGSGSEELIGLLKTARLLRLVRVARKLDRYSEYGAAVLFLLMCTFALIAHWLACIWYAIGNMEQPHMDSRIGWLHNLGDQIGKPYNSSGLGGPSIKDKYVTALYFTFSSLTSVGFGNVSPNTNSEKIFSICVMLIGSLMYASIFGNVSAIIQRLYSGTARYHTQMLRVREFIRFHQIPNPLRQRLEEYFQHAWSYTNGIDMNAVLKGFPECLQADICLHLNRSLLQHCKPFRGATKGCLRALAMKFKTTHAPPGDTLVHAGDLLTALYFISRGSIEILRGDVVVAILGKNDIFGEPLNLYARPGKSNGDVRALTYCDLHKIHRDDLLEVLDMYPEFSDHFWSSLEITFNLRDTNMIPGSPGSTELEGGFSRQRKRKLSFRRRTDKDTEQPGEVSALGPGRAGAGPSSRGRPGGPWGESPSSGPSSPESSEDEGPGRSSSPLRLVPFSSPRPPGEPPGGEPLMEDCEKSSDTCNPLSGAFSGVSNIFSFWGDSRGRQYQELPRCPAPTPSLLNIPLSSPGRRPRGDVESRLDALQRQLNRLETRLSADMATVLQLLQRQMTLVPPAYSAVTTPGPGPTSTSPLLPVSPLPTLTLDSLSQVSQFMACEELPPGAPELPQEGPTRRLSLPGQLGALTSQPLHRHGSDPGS
Answers are plain numbers, in nM.

Consider the following illustrative entries.
INPUT: Requested read-out IC50, target or system Voltage-gated inwardly rectifying potassium channel KCNH2 (Homo sapiens, UniProt Q12809), entry COc1cc(/C=C/c2nc(N)c3ccccc3n2)ccc1-n1cnc(C)c1
OUTPUT: 140

INPUT: Requested read-out IC50, target or system Voltage-gated inwardly rectifying potassium channel KCNH2 (Homo sapiens, UniProt Q12809), entry COc1cc(/C=C/c2nc(NCc3ccccc3)c3c4c(sc3n2)CCC4)ccc1-n1cnc(C)c1
OUTPUT: 1120

INPUT: Requested read-out IC50, target or system Voltage-gated inwardly rectifying potassium channel KCNH2 (Homo sapiens, UniProt Q12809), entry COc1cc(/C=C/c2nc3sc4c(c3c(=O)[nH]2)CCC4)ccc1-n1cnc(C)c1
OUTPUT: 4730

INPUT: Requested read-out IC50, target or system Voltage-gated inwardly rectifying potassium channel KCNH2 (Homo sapiens, UniProt Q12809), entry COc1cc(/C=C/c2nc3ccccc3c(=O)n2-c2ccccc2)ccc1-n1cnc(C)c1
OUTPUT: 990

INPUT: Requested read-out IC50, target or system Voltage-gated inwardly rectifying potassium channel KCNH2 (Homo sapiens, UniProt Q12809), entry COc1cc(/C=C/c2nc3ccccc3[nH]2)ccc1-n1cnc(C)c1
OUTPUT: 680

INPUT: Requested read-out IC50, target or system Voltage-gated inwardly rectifying potassium channel KCNH2 (Homo sapiens, UniProt Q12809), entry COc1cc(/C=C/c2nc(N)c3c(n2)oc2ccccc23)ccc1-n1cnc(C)c1
OUTPUT: 510

***
INPUT: Requested read-out IC50, target or system Voltage-gated inwardly rectifying potassium channel KCNH2 (Homo sapiens, UniProt Q12809), entry CCOC(=O)c1sc2nc(/C=C/c3ccc(-n4cnc(C)c4)c(OC)c3)nc(N)c2c1C
OUTPUT: 980
